Catalogue of pIC50 values
- Test system: MCF7
- test method notes: Antiproliferative activity against human MCF7 cells by MTT assay
pIC50: −log10 of the molar value.

# entry smiles, pIC50
rows = [
    ("NS(=O)(=O)c1ccc(/N=C2\\NC(=O)/C(=C3/C(=O)Nc4ccc(Br)cc43)S2)cc1", 4.95),
    ("COc1ccc2c(c1)/C(=C1/S/C(=N/c3cccc(S(N)(=O)=O)c3)NC1=O)C(=O)N2", "< 3.70"),
    ("NS(=O)(=O)c1cccc(/N=C2\\NC(=O)/C(=C3/C(=O)Nc4ccc(Cl)cc43)S2)c1", "< 3.70"),
    ("CN1C(=O)/C(=C2\\S/C(=N/c3ccc(S(N)(=O)=O)cc3)NC2=O)c2cc(Cl)ccc21", "< 3.70"),
    ("CN1C(=O)/C(=C2\\S/C(=N/c3ccc(S(N)(=O)=O)cc3)NC2=O)c2ccccc21", 4.28),
    ("NS(=O)(=O)c1ccc(/N=C2\\NC(=O)/C(=C3/C(=O)N(Cc4ccccc4)c4ccc(Cl)cc43)S2)cc1", 3.91),
    ("NS(=O)(=O)c1cccc(/N=C2\\NC(=O)/C(=C3/C(=O)N(Cc4ccccc4)c4ccccc43)S2)c1", "< 3.70"),
    ("NS(=O)(=O)c1ccc(/N=C2\\NC(=O)/C(=C3/C(=O)Nc4ccccc43)S2)cc1", "< 3.70"),
]
